- test_protocol: Mouse PK studies of 11 (plasma)
- Assay type: in vivo, Female C57B16/N mice
- cond: 50 mg/kg PO, formulation b
readout_name: AUClast/D

- entry_smiles: "C[C@@H]1Cc2cc(C(N)=O)cnc2N1"
  readout_name: "AUClast/D"
  result: "865 kg·ng·h/mL/mg"

---

- test_protocol: Mouse PK studies of 11 (plasma)
- Type: in vivo, Female C57B16/N mice
- cond: female, C57B16/N, mouse, plasma, po, 50 mg/kg, 50 mg/kg PO, formulation a; read-out: MRTInf—obs

- entry_smiles: "C[C@@H]1Cc2cc(C(N)=O)cnc2N1"
  MRT inf, h: 2.5

---

- test_protocol: Mouse PK studies of 11 (plasma)
- Format: in vivo, Female C57B16/N mice
- cond: female, C57B16/N, mouse, plasma, po, 50 mg/kg, 50 mg/kg PO, formulation b

- entry_smiles: "C[C@@H]1Cc2cc(C(N)=O)cnc2N1"
  unit_of_measurement: "ng·h/mL"
  AUC(0-t): 43200

Data provenance is patent US20250368638A1.
